Known IC50 of a selection of compounds
EXPERIMENTAL SYSTEM: Epidermal growth factor receptor (Homo sapiens, UniProt P00533, L858R)
Sequence (P00533 25-1210 L858R limits assumed): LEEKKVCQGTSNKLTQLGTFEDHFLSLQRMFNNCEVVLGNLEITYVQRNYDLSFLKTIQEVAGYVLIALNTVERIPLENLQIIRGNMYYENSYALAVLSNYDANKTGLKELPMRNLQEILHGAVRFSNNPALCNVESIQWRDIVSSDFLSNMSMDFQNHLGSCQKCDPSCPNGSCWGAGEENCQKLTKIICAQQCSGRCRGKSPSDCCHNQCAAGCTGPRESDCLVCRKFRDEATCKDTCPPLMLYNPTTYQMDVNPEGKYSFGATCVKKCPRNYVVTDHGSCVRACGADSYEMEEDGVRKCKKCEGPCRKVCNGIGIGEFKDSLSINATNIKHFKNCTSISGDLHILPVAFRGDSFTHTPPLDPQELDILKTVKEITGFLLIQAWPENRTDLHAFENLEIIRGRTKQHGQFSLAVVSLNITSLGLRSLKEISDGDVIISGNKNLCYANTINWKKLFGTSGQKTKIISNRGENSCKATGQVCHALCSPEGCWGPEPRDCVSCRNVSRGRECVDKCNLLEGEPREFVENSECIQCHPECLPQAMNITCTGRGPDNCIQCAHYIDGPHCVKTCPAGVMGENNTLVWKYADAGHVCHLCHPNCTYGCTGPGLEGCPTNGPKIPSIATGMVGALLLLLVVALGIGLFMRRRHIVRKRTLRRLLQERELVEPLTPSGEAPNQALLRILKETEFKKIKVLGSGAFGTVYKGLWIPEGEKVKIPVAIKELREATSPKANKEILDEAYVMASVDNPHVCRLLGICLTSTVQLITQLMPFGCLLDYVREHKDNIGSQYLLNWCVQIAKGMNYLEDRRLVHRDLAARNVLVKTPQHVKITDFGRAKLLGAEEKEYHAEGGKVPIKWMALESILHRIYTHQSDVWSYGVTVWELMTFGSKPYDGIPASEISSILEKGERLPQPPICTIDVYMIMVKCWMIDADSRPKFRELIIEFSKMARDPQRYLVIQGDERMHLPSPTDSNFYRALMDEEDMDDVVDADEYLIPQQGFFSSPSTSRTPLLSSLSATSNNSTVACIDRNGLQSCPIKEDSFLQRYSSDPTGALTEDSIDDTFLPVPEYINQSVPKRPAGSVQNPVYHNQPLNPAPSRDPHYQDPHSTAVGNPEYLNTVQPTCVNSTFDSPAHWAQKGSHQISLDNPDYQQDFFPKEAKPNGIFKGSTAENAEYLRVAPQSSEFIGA

As a guide, the following entries are already answered.
INSERT INTO assay_data (compound, experimental_system, observed_measurement) VALUES
  ('CCC(=O)Nc1ccc(Oc2nc(Nc3cc(C)[nH]n3)cc(N3CCN(C)CC3)n2)cc1', 'Epidermal growth factor receptor (Homo sapiens, UniProt P00533, L858R)', '1900 nM'),
  ('CCC(=O)Nc1cccc(Oc2nccc(Nc3cc(C)[nH]n3)n2)c1', 'Epidermal growth factor receptor (Homo sapiens, UniProt P00533, L858R)', '> 10000 nM');

stdin: Report IC50 under test system Epidermal growth factor receptor (Homo sapiens, UniProt P00533, L858R) for Cc1cc(Nc2cc(N3CCN(C)CC3)nc(Oc3cccc(N)c3)n2)n[nH]1 .
stdout: > 10000 nM

stdin: State the measured IC50 (Epidermal growth factor receptor (Homo sapiens, UniProt P00533, L858R)) of CCC(=O)Nc1ccccc1Oc1nc(Nc2cc(C)[nH]n2)cc(N2CCN(C)CC2)n1
stdout: > 10000 nM

stdin: Would you please give the reported IC50 of CCC(=O)Nc1ccc2c(Nc3cc[nH]n3)nc(-c3ccccc3)nc2c1 with Epidermal growth factor receptor (Homo sapiens, UniProt P00533, L858R)?
stdout: 2100 nM
